Data origin, for the record: the supplement of paper PMC10567573

B1: CDC25A (parent)
chain: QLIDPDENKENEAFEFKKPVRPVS

- Variants of: B1
- assay procedure: protein stability index of a GFP-peptide fusion (GPS, HEK-293T) (PSI 1-6); higher = more stable;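 also: lentivirally expressed fusions sorted by FACS into six bins by GFP to DsRed ratio, PSI derived from sequencing read proportions per bin multiplied by bin number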
- measurement context: c terminus: a fixed tail appended
Use T when the recorded protein stability index is no lower than 4; use F when it is lower.

monomer sequence	label class
QLIDPDENKENEAFEFKKPNRPVS [V20N]	T
QLIDPDENKENEAFEFKKPVRPKS [V23K]	F
QLIDPDENKENVAFEFKKPVRPVS [E12V]	F
QLIDPDERKENEAFEFKKPVRPVS [N8R]	T
QLIDPDENKENEAFEFKKPRRPVS [V20R]	F
QLIDPDENKENEAFEFKKPQRPVS [V20Q]	F
QLIDPDENKENEAFEFKKPHRPVS [V20H]	T
QLIDPDENKENEAFEFSKPVRPVS [K17S]	F
QLIDSDENKENEAFEFKKPVRPVS [P5S]	F
QLIDPDENKENERFEFKKPVRPVS [A13R]	F
QLIDPDENKKNEAFEFKKPVRPVS [E10K]	T
QLIDPKENKENEAFEFKKPVRPVS [D6K]	F
QLLDPDENKENEAFEFKKPVRPVS [I3L]	F
QLIDPDENKENEAFEFCKPVRPVS [K17C]	F
